# measurement_target: xanthine oxidase (XO) (Bos taurus)
# Construct: XO (from bovine milk); purchased Merck (Darmstadt, Germany); host or cells: bovine milk (natural source)
# test_method_notes: XO assay with xanthine as substrate (uric acid formation, HPLC-UV)
# Format: biochemical, bovine
# measurement_parameters: relative to APU
observation_type: α = IC50 of flavonoid/IC50 of positive control, xanthine oxidation
Reply briefly: the number, and no unit.

### Prompt What value of α = IC50 of flavonoid/IC50 of positive control, xanthine oxidation has been reported for the following compound? COc1cc(C2Oc3c(O)cc(-c4oc5cc(O)cc(O)c5c(=O)c4O)cc3C2CO)ccc1OS(=O)(=O)O (mixture of isomers) [DSCS, 2,3‐dehydrosilychristin‐19‐O‐sulfate]
### Response 0.31

### Prompt Note, next up: COc1cc([C@@H]2Oc3c(O)cc([C@H]4Oc5cc(O)cc(O)c5C(=O)[C@@H]4O)cc3[C@H]2CO)ccc1O [SC, silychristin]
### Response 17.3

### Prompt Note, next up: COc1cc([C@@H]2Oc3cc([C@H]4Oc5cc(O)cc(O)c5C(=O)[C@@H]4O)ccc3O[C@H]2CO)ccc1OS(=O)(=O)O [SBS, silybin B‐20‐O‐sulfate]
### Response 0.92

### Prompt Note, next up: COc1cc([C@@H]2Oc3c(O)cc(-c4oc5cc(O)cc(O)c5c(=O)c4O)cc3[C@H]2CO)ccc1O [DSC]
### Response 0.35

### Prompt Note, next up: COc1cc([C@H]2Oc3cc([C@H]4Oc5cc(O)cc(O)c5C(=O)[C@@H]4O)ccc3O[C@@H]2CO)ccc1OS(=O)(=O)O [SAS, silybin A‐20‐O‐sulfate]
### Response 5.50

###

Task for the reader: assign each of the following compounds its reported Log K ± SEM (binding constant, modified Stern–Volmer).
# measurement_target: xanthine oxidase (XO) (Bos taurus, UniProt P80457)
# Construct: XO (from bovine milk); purchased Merck (Darmstadt, Germany); host or cells: bovine milk (natural source)
# Sequence (P80457 whole entry): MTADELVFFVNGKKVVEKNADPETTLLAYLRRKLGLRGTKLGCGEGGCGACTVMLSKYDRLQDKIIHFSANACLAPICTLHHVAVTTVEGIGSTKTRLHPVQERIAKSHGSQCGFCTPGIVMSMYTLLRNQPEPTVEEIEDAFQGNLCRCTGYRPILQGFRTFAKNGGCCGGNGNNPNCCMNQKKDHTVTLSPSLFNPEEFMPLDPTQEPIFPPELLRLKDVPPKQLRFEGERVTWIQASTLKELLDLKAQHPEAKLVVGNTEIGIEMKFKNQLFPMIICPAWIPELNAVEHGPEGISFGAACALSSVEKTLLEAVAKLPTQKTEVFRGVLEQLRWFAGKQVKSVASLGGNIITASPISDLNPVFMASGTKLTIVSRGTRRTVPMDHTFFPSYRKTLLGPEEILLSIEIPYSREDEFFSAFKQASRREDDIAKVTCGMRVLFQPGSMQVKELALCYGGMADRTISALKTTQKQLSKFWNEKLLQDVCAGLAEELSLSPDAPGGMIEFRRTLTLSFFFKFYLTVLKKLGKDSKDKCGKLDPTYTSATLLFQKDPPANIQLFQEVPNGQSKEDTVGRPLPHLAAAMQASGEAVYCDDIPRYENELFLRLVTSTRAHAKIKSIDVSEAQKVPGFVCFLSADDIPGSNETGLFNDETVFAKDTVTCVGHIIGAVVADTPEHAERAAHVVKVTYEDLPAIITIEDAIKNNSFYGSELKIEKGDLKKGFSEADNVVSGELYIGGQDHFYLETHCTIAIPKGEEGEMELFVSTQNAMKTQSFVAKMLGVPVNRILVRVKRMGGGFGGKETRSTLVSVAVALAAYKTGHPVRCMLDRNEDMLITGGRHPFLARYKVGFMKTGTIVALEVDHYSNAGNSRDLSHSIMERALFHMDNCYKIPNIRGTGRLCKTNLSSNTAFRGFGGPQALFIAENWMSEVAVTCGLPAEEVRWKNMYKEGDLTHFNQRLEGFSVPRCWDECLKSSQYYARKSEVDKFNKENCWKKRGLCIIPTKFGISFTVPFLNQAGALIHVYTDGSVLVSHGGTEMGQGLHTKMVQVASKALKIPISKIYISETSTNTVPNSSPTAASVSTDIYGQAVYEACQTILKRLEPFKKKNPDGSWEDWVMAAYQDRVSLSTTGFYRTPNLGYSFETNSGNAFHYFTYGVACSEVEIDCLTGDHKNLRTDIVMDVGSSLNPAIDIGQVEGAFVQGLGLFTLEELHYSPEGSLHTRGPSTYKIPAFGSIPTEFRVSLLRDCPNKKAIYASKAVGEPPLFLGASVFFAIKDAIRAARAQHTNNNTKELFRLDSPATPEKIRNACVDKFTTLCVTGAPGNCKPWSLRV
# test_method_notes: Fluorescence quenching studies of polyphenol-XO complexes
# Assay type: binding, bovine
# measurement_parameters: association constant K in L mol^−1; λex 280 nm, λem 335 nm; XO 0.4 μmol L^−1; pH 7.5
Reply briefly: the number, and no unit.

### Prompt Request: Log K ± SEM (binding constant, modified Stern–Volmer), test system xanthine oxidase (XO) (Bos taurus, UniProt P80457), entry COc1cc([C@@H]2Oc3cc([C@H]4Oc5cc(O)cc(O)c5C(=O)[C@@H]4O)ccc3O[C@H]2CO)ccc1OS(=O)(=O)O [SBS, silybin B‐20‐O‐sulfate]
### Response 5.05

### Prompt Note, next up: COc1cc(C2Oc3c(O)cc(-c4oc5cc(O)cc(O)c5c(=O)c4O)cc3C2CO)ccc1OS(=O)(=O)O (mixture of isomers) [DSCS, 2,3‐dehydrosilychristin‐19‐O‐sulfate]
### Response 5.12

### Prompt Note, next up: COc1cc(C2Oc3c(O)cc(C4Oc5cc(O)cc(O)c5C(=O)C4O)cc3C2CO)ccc1OS(=O)(=O)O (mixture of isomers) [SCS, silychristin‐19‐O‐sulfate]
### Response 4.66

### Prompt Note, next up: COc1cc([C@@H]2Oc3c(O)cc([C@H]4Oc5cc(O)cc(O)c5C(=O)[C@@H]4O)cc3[C@H]2CO)ccc1O
### Response 4.81

### Prompt Note, next up: COc1cc([C@H]2Oc3cc([C@H]4Oc5cc(O)cc(O)c5C(=O)[C@@H]4O)ccc3O[C@@H]2CO)ccc1OS(=O)(=O)O [SAS, silybin A‐20‐O‐sulfate]
### Response 4.99

###

Task for the reader: assign each of the following compounds its reported Log K SV ± SEM (Stern–Volmer quenching constant).
# measurement_target: xanthine oxidase (XO) (Bos taurus, UniProt P80457)
# Construct: XO (from bovine milk); purchased Merck (Darmstadt, Germany); host or cells: bovine milk (natural source)
# test_method_notes: Fluorescence quenching studies of polyphenol-XO complexes
# Type: binding, bovine
# measurement_parameters: K SV in L mol^−1; λex 280 nm, λem 335 nm; XO 0.4 μmol L^−1; pH 7.5
Reply briefly: the number, and no unit.

### Prompt What value of Log K SV ± SEM (Stern–Volmer quenching constant) has been reported for the following compound? COc1cc([C@@H]2Oc3cc([C@H]4Oc5cc(O)cc(O)c5C(=O)[C@@H]4O)ccc3O[C@H]2CO)ccc1OS(=O)(=O)O [SBS, silybin B‐20‐O‐sulfate]
### Response 4.63

### Prompt Note, next up: COc1cc([C@H]2Oc3ccc([C@H]4Oc5cc(O)cc(O)c5C(=O)[C@@H]4O)cc3O[C@@H]2CO)ccc1O
### Response 4.46

### Prompt Note, next up: COc1cc(C2Oc3c(O)cc(C4Oc5cc(O)cc(O)c5C(=O)C4O)cc3C2CO)ccc1OS(=O)(=O)O (mixture of isomers) [SCS, silychristin‐19‐O‐sulfate]
### Response 4.37

### Prompt Note, next up: COc1cc(C2Oc3c(O)cc(-c4oc5cc(O)cc(O)c5c(=O)c4O)cc3C2CO)ccc1OS(=O)(=O)O (mixture of isomers) [DSCS, 2,3‐dehydrosilychristin‐19‐O‐sulfate]
### Response 4.68

### Prompt Note, next up: COc1cc([C@H]2Oc3cc([C@H]4Oc5cc(O)cc(O)c5C(=O)[C@@H]4O)ccc3O[C@@H]2CO)ccc1O
### Response 4.45

### Prompt Note, next up: COc1cc([C@H]2Oc3cc([C@H]4Oc5cc(O)cc(O)c5C(=O)[C@@H]4O)ccc3O[C@@H]2CO)ccc1OS(=O)(=O)O [SAS, silybin A‐20‐O‐sulfate]
### Response 4.58

### Prompt Note, next up: COc1cc([C@@H]2Oc3c(O)cc([C@H]4Oc5cc(O)cc(O)c5C(=O)[C@@H]4O)cc3[C@H]2CO)ccc1O
### Response 4.43

### Prompt Note, next up: COc1cc([C@@H]2Oc3c(O)cc(-c4oc5cc(O)cc(O)c5c(=O)c4O)cc3[C@H]2CO)ccc1O
### Response 4.68

### Prompt Note, next up: COc1cc([C@@H]2Oc3cc([C@H]4Oc5cc(O)cc(O)c5C(=O)[C@@H]4O)ccc3O[C@H]2CO)ccc1O
### Response 4.49

###

Task for the reader: assign each of the following compounds its reported IC50.
# measurement_target: xanthine oxidase (XO) (Bos taurus)
# Construct: XO (from bovine milk); purchased Merck (Darmstadt, Germany); host or cells: bovine milk (natural source)
# test_method_notes: XO assay with xanthine as substrate (uric acid formation, HPLC-UV)
# Assay type: biochemical, bovine
# measurement_parameters: XO 0.0003 U mL^−1; xanthine 5 μmol L^−1; 8 min, 37 °C, pH 7.5; read-out: IC50, xanthine oxidation
Express the result in nM but write the number alone.

### Prompt Request: IC50, test system xanthine oxidase (XO) (Bos taurus), entry COc1cc(C2Oc3c(O)cc(-c4oc5cc(O)cc(O)c5c(=O)c4O)cc3C2CO)ccc1OS(=O)(=O)O (mixture of isomers) [DSCS, 2,3‐dehydrosilychristin‐19‐O‐sulfate]
### Response 80

### Prompt Note, next up: COc1cc([C@@H]2Oc3c(O)cc(-c4oc5cc(O)cc(O)c5c(=O)c4O)cc3[C@H]2CO)ccc1O [DSC]
### Response 90

### Prompt Note, next up: COc1cc([C@@H]2Oc3c(O)cc([C@H]4Oc5cc(O)cc(O)c5C(=O)[C@@H]4O)cc3[C@H]2CO)ccc1O [SC, silychristin]
### Response 4500

### Prompt Note, next up: COc1cc([C@@H]2Oc3cc([C@H]4Oc5cc(O)cc(O)c5C(=O)[C@@H]4O)ccc3O[C@H]2CO)ccc1OS(=O)(=O)O [SBS, silybin B‐20‐O‐sulfate]
### Response 240

###

Task for the reader: assign each of the following compounds its reported inhibition at 20 µM.
# measurement_target: xanthine oxidase (XO) (Bos taurus, UniProt P80457)
# Construct: XO (from bovine milk); purchased Merck (Darmstadt, Germany); host or cells: bovine milk (natural source)
# test_method_notes: XO assay with xanthine as substrate (uric acid formation, HPLC-UV);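 also: incubations in 0.05 mol L^−1 sodium phosphate buffer, with uric acid and remaining xanthine both quantified by HPLC-UV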
# Assay type: biochemical, bovine
# measurement_parameters: inhibitor 20 μmol L^−1; xanthine 5 μmol L^−1; read-out: decrease in uric acid production (inhibition of XO-catalyzed xanthine oxidation)
Express the result in % but write the number alone.

### Prompt What value of inhibition at 20 µM has been reported for the following compound? COc1cc([C@H]2Oc3ccc([C@H]4Oc5cc(O)cc(O)c5C(=O)[C@@H]4O)cc3O[C@@H]2CO)ccc1O [ISA, isosilybin A]
### Response 64

### Prompt Note, next up: O=S(=O)(O)Oc1cc(O)cc(C=Cc2ccc(O)cc2)c1 [R3S, resveratrol‐3‐sulfate]
### Response 27

### Prompt Note, next up: COc1cc([C@@H]2Oc3c(O)cc(-c4oc5cc(O)cc(O)c5c(=O)c4O)cc3[C@H]2CO)ccc1O [DSC]
### Response 96

From: paper PMC11909324
